// data source = patent US20240390340A1

Molecular target: KRAS G12D (Homo sapiens, UniProt P01116, G12D)
Sequence (P01116 1-188 isoform P01116-2 G12D): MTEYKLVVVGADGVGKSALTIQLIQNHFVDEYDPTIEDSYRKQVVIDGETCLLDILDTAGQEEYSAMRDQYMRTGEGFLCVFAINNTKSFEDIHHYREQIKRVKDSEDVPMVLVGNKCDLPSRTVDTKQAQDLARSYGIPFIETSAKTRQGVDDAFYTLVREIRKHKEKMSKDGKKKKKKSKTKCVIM
Test: GDP-GTP exchange assay (bodipy-GDP/GppNHp, SOS1), KRAS G12D
Type: biochemical
Settings: bodipy-loaded KRAS G12D 2.5 nM, 4 h pre-incubation; value for the most potent isomer quoted for certain compounds; read-out: G12D (KRAS G12D exchange assay IC50)
pIC50: −log10 of the molar value.
For each of the compounds below, state its pIC50.

stdin: I'd like to know its pIC50. The compound in question is Cc1nc2c(F)c(-c3cccc(Cl)c3Cl)c(CCC#N)cc2c2c1cc([C@H]1C[C@H](OC[C@@H]3CCCO3)CN1C(=O)C1CC1)n2[C@H]1[C@H]2CN[C@@H]1C2 [Example 400]
stdout: ≥ 7.00

stdin: Could you do the same for Cc1nc2c(F)c(-c3cccc(Cl)c3Cl)c(CCC#N)cc2c2c1cc([C@H]1C[C@H](n3cc(C(C)N4CCOC4=O)nn3)CN1C(=O)C1CC1)n2[C@H]1[C@H]2CN[C@@H]1C2 (stereo partly drawn) [Example 325] , please?
stdout: ≥ 7.00

stdin: Next: Cc1nc(CO[C@H]2C[C@H](c3cc4c(C)nc5c(F)c(-c6cccc(Cl)c6Cl)c(CCC#N)cc5c4n3[C@H]3[C@H]4CN[C@@H]3C4)N(C(=O)C3CC3)C2)cs1 [Example 107]
stdout: ≥ 7.00
